# Lookup of reported pKd keyed by entry
Molecular target: T1, biotinylated human DLL3 protein expressed as a human IgG1 fusion protein (human, UniProt Q9NYJ7 27-492, limits assumed, biotinylated)
T1 sequence: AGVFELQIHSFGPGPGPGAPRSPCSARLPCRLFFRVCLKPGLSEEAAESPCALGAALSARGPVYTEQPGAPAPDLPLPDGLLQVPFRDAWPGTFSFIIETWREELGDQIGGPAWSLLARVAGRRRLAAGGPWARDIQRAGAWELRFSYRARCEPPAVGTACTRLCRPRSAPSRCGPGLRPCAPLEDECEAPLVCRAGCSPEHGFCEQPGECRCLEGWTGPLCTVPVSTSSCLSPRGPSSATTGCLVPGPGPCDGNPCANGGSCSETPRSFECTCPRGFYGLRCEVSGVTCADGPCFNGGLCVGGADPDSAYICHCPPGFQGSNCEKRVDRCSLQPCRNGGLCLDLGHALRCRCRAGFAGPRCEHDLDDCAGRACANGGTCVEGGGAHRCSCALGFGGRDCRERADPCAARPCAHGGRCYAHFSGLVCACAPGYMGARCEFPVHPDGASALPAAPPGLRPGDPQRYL
Assay: Octet BLI, single 50 nM
Field pKd (float): negative decimal logarithm of the concentration in molar.

Record excerpt, results attached:
4G03 anti-DLL3 trispecific protein (other, not shown: linker 1808, anti-albumin sdAb, linker 1808, anti-CD3 fragment, His6 1819) EVQLVESGGGLVQPGGSLTLSCAASGSSVKFLSMAWYRQAPGKKRELVAGISADGSTDYIHSVKGRFTISRDNAKNSVYLQMNSLRAEDTAVYYCYAYRWTRRYTYWGQGTLVTVSS; 7.70
2F03 anti-DLL3 trispecific protein (other, not shown: linker 1808, anti-albumin sdAb, linker 1808, anti-CD3 fragment, His6 1819) EVQLVESGGGLVQPGGSLTLSCVASGSTSSINAMAWYRRAPGKQRELAAGISSDNSKVYADSVKGRFTISRDNAKNSVYLQMNSLRAEDTAVYYCYYFRTVGGSSMRYWGQGTLVTVSS; 8.23
1B01 anti-DLL3 trispecific protein (other, not shown: linker 1808, anti-albumin sdAb, linker 1808, anti-CD3 fragment, His6 1819) EVQLVESGGGLVQPGGSLTLSCVASGSTSIINAMGWYRRAPGKQRELAAGISSDGSKVIADSVKGRFTISRDNAKNSVYLQMNSLRAEDTAVYYCYYFRRVSGSSMRYWGQGTLVTVSS; 8.28
3G07 anti-DLL3 trispecific protein (other, not shown: linker 1808, anti-albumin sdAb, linker 1808, anti-CD3 fragment, His6 1819) EVQLVESGGGLVQPGGSLTLSCAASGSSVSFLSMAWYRQAPGKKRELVAGISRDGSTDYIDSVKGRFTISRDNAKNSVYLQMNSLRAEDTAVYYCYAYRWTSRYTYWGQGTLVTVSS; 7.89

Look up pKd: 2A01 anti-DLL3 trispecific protein (other, not shown: linker 1808, anti-albumin sdAb, linker 1808, anti-CD3 fragment, His6 1819) EVQLVESGGGLVQPGGSLTLSCVASGSTSSINAMGWYRRAPGKQRELVAGISSDGSKVVADSVKGRFTISRDNAKNSVYLQMNSLRAEDTAVYYCYYFRTLSGSSMRYWGQGTLVTVSS 8.10

Could you tell me which pKd is on file for 4C02 anti-DLL3 trispecific protein (other, not shown: linker 1808, anti-albumin sdAb, linker 1808, anti-CD3 fragment, His6 1819) EVQLVESGGGLVQPGGSLTLSCAASGSKVSFLSMAWYRQAPGKKRELVAGISADGSTTYIDSVKGRFTISRDNAKNSVYLQMNSLRAEDTAVYYCYAYRWTTRFTYWGQGTLVTVSS ? 8.17

Return reported pKd; argument: 2H010 anti-DLL3 trispecific protein (other, not shown: linker 1808, anti-albumin sdAb, linker 1808, anti-CD3 fragment, His6 1819) EVQLVESGGGLVQPGGSLTLSCVASGSTSSINAMGWYRRAPGKQRELAAGISSDGSKLYADSVKGRFTISRDNAKNSVYLQMNSLRAEDTAVYYCYYFRTVSGSSMRYWGQGTLVTVSS 8.19

Record request: pKd value, item 1D03 anti-DLL3 trispecific protein (other, not shown: linker 1808, anti-albumin sdAb, linker 1808, anti-CD3 fragment, His6 1819) EVQLVESGGGLVQPGGSLTLSCVASGSTSSINAIGWYRRAPGKQRELVAGISSDGSKVLADSVKGRFTISRDNAKNSVYLQMNSLRAEDTAVYYCYYFRIVSGSSMGYWGQGTLVTVSS 8.24

Requested read-out: pKd. Entry: 3H01 anti-DLL3 trispecific protein (other, not shown: linker 1808, anti-albumin sdAb, linker 1808, anti-CD3 fragment, His6 1819) EVQLVESGGGLVQPGGSLTLSCVASGSSVKFLSMAWYRQAPGKKRELVAGISGDGSTTYIDSVKGRFTISRDNAKNSVYLQMNSLRAEDTAVYYCYAYRWTTRRTYWGQGTLVTVSS 8.05

Hey, just so you know, these numbers are from patent US20240141072A1.
